Just for reference, patent US20170035894A1 is where these values come from.

- System: cells in culture
- test-name: Cytotoxicity of unconjugated drugs to cells in culture
- Type: cell-based
- measurement-conditions: unconjugated drug; read-out: typical IC50, cytotoxic to cells in culture
measure: IC50

Find the measured IC50: item CCCC(=O)OCN(C(=O)[C@@H](NC(=O)[C@H]1CCCCN1C)[C@@H](C)CC)[C@H](C[C@@H](OC(C)=O)c1nc(C(=O)N[C@@H](Cc2ccc(O)cc2)C[C@H](C)C(=O)O)cs1)C(C)C [Tubulysin B, tubulysin B, reference compound] , target or system cells in culture. ~1 nM

* * *

- test-name: Cytotoxicity of unconjugated drugs to cells in culture
- Format: cell-based
- measurement-conditions: cells in culture; unconjugated drug; read-out: typical IC50, cytotoxic to cells in culture
pIC50: −log10 of the molar value.
measure: pIC50

Which value of pIC50 has been reported for CCCC(=O)OCN(C(=O)[C@@H](NC(=O)[C@H]1CCCCN1C)C(C)CC)[C@H](C[C@@H](OC(C)=O)c1nc(C(=O)N[C@@H](Cc2ccc(O)cc2)C[C@H](C)C(=O)NN)cs1)C(C)C (stereo partly shown) [TubB-H, reference compound] in the records? ~9.00
